tested_system: Endonuclease 8-like 2 (Homo sapiens) (UniProt Q969S2);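 note: fluorescence at 594 nm reports NEIL2 cutting and release of a quenched double-stranded DNA oligo substrate, reduced signal read as inhibition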
Sequence (whole entry): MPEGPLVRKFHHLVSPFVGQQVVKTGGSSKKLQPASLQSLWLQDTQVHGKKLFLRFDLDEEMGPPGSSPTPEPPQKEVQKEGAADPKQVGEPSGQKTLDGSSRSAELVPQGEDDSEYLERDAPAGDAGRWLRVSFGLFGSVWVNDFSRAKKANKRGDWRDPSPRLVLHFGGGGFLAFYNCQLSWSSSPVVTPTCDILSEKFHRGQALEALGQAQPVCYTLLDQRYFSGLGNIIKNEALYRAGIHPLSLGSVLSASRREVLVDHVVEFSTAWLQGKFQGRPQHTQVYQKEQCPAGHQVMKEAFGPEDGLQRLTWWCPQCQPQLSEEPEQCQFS
test_settings: Compound Concentration 10.0 uM, Hit No
Description: Inhibition of NEIL2 by quantifying inhibition of NEIL2-mediated cleavage and dissociation of quenched duplex DNA oligonucleotides, measured as fluorescence at 594 nm.

molecule: Cc1c(Cc2ccc3ccccc3n2)c2cc(F)ccc2n1CC(=O)O
inhibition: 30.2%
--
molecule: CCOc1ccc(-n2c([C@@H](C)N(Cc3cccnc3)C(=O)Cc3ccc(F)c(C(F)(F)F)c3)nc3ncccc3c2=O)cc1
inhibition: -4.17%
--
molecule: CCCn1c(=O)c2nc(C34CC5CC(CC3C5)C4)[nH]c2n(CCC)c1=O
inhibition: 12.2%
--
molecule: CC(C)(C)C1CCc2c(sc(NC(=O)c3ccco3)c2C(=O)O)C1 (stereo unspecified)
inhibition: 17.7%
--
molecule: Cc1nc(C2CCN(C(=O)c3ccc(OC(F)(F)F)cc3N)CC2)c2ncc(N3CCN(C)CC3)cc2n1
inhibition: -4.68%
--
molecule: C=CCN1C[C@H](C(=O)N(CCCN(C)C)C(=O)NCC)C[C@@H]2c3cccc4[nH]cc(c34)C[C@H]21
inhibition: -3.73%
--
molecule: COc1ccc(Br)cc1S(=O)(=O)NC(=O)/C=C/c1ccccc1Cc1ccc2ccccc2c1
inhibition: 6.5%
--
molecule: C=CCN1C[C@H](C)N([C@H](c2ccc(C(=O)N(CC)CC)cc2)c2cccc(O)c2)C[C@H]1C
inhibition: 6.25%
--
molecule: C=C(C)[C@H]1CN[C@H](C(=O)O)[C@H]1CC(=O)O
inhibition: -3.66%
--
molecule: COCCCN1CCC(NC(=O)c2cc(Cl)c(N)c3c2OCC3)CC1
inhibition: -0.983%
--
molecule: NCC(O)c1ccc(O)cc1 (stereo unspecified)
inhibition: 2.96%
--
molecule: c1ccc(Cn2c(N3CCNCC3)nc3ccccc32)cc1
inhibition: -2.13%
--
molecule: O=c1cccc2n1C[C@@H]1CNC[C@H]2C1
inhibition: -3.15%
--
molecule: CC(C)c1c(CN(C)C(C)Cc2ccccc2)n(C)n(-c2ccccc2)c1=O (stereo unspecified)
inhibition: -4.57%
--
molecule: O=C1C[C@@H]2OCC=C3CN4CC[C@]56c7ccccc7N1[C@H]5[C@H]2[C@H]3C[C@H]46
inhibition: -1.88%
--
molecule: CCCNC(=O)c1nnc2c(-c3c(F)cccc3OC)cccc2c1N
inhibition: -2.64%
--
molecule: CCCCCCNC(=O)Nc1ccc(S(=O)(=O)Nc2ccc(CCNC[C@H](O)COc3ccc(O)cc3)cc2)cc1
inhibition: -3.66%
--
molecule: COc1cc(-c2cn([C@H]3CCc4ccccc4N(CC(F)(F)F)C3=O)nn2)ccc1-n1ccc(C)n1
inhibition: 12.5%
--
molecule: C[C@H](CCC(=O)O)[C@H]1CC[C@H]2[C@@H]3CC[C@@H]4C[C@H](O)CC[C@]4(C)[C@H]3CC[C@]12C
inhibition: 8%
--
molecule: COc1cc(OC)cc(C(=O)NNC(=O)Nc2cccc3ccccc23)c1
inhibition: 5.26%
--
molecule: COC(=O)N1CCN(C(=O)Cc2ccc(Cl)c(Cl)c2)C(CN2CCCC2)C1 (stereo unspecified)
inhibition: 0.414%
--
molecule: CCC(=N\O)/C(C)=C/c1ccc(F)c(C)c1
inhibition: 0.276%
--
molecule: CC(C=CC1=C(C)CCCC1(C)C)=CC=CC(C)=CC(=O)O
inhibition: -4.83%
--
molecule: COc1cc(OC)c(NC(=O)c2ccc(Cc3cc4c(cc3C)C(C)(C)CCC4(C)C)o2)c(OC)c1
inhibition: 14.7%
--
molecule: C=C1/C(=C\C=C2/CCC[C@]3(C)[C@@H]([C@H](C)CCCC(C)(C)O)CC[C@@H]23)C[C@@H](O)C[C@@H]1O
inhibition: -1.25%
--
molecule: CCCCC[C@H](O)/C=C/[C@@H]1[C@@H](C/C=C\CCCC(=O)O)[C@@H](O)C[C@H]1O
inhibition: 0.515%
--
molecule: C[C@@H]1CCc2ncc(F)cc2[C@H]2CCCN2c2ccn3ncc(c3n2)C(=O)N1
inhibition: -1.65%
--
molecule: CN1CCN(c2nc(N)c3ccccc3n2)CC1
inhibition: 16%
--
molecule: OC(c1ccc(-c2ccc(CN3CCN(Cc4ccncc4)CC3)cc2)c(F)c1)(C(F)(F)F)C(F)(F)F
inhibition: -2.02%
--
molecule: CNc1ncc2cc(-c3ccc(-c4ncccc4F)cc3Cl)c(=O)n(C[C@H]3OC[C@H](N)CO3)c2n1
inhibition: -5.96%
--
molecule: CCn1c(CNC(=O)c2ncc(C)nc2N)[n+](CC)c2ccc(C(=O)N(C)CCN(C)C)cc21
inhibition: 1.3%

###

tested_system: G/T mismatch-specific thymine DNA glycosylase (Homo sapiens);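 note: human TDG cleavage of quenched duplex DNA oligonucleotides coupled to APE1, strand release read as fluorescence at 594 nm, inhibition of TDG activity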
test_settings: Compound Concentration 10.0 uM, Hit No
Description: Inhibition of TDG by quantifying inhibition of TDG-mediated cleavage and dissociation of quenched duplex DNA oligonucleotides, measured as fluorescence at 594 nm. To generate a functional strand incision and increase turn-over this assay is coupled to APE1.
Please enter Fulfilled where inhibition is greater than or equal to 10%, and Not fulfilled where it is lower.

structure_as_smiles: CN[C@@H](C)C/C=C/c1cncc(OC(C)C)c1
class_assignment: Not fulfilled
//
structure_as_smiles: NS(=O)(=O)c1cncc(-c2nc(NCc3ccccn3)c3c(-c4ccccc4)cccc3n2)c1
class_assignment: Fulfilled
//
structure_as_smiles: Cc1cccc(NC(=O)CN2CCC(c3ccccn3)CC2)c1
class_assignment: Fulfilled
//
structure_as_smiles: O=C(NNC(=O)c1ccc(CNS(=O)(=O)c2ccc(F)c(Cl)c2)cc1)c1ccccc1
class_assignment: Fulfilled
//
structure_as_smiles: COc1ccc(CNC(=O)c2cc(-c3cncc(Cl)c3)cnc2-c2ccccn2)nc1OC
class_assignment: Fulfilled
//
structure_as_smiles: CC(C)c1c(NC(=O)Nc2ccc(Cl)cc2)c(=O)n(-c2ccccc2)n1C
class_assignment: Not fulfilled
//
structure_as_smiles: CN(C)C(=O)Cn1cc(-c2nc(C3(c4ccc(-c5cnc(N)nc5)cc4)CC3)no2)cn1
class_assignment: Fulfilled
//
structure_as_smiles: CNC(=O)c1cc(C(=O)N[C@H]2[C@@H]3COC[C@@H]32)cc2c1O[C@H](CF)[C@H]2c1ccccc1
class_assignment: Fulfilled
//
structure_as_smiles: O=c1[nH]c2ccccc2n1CCCN1CCN(C(c2ccccc2)c2ccccc2)CC1
class_assignment: Fulfilled
//
structure_as_smiles: COc1cc(-c2cncc(-c3ccc(N4CCN(C(C)C)CC4)cc3)c2C)cc(F)c1C(N)=O
class_assignment: Fulfilled

###

Recorded inhibition by entry
tested_system: Single-strand selective monofunctional uracil DNA glycosylase (Homo sapiens);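 note: enzymatic SMUG1 assay coupled with APE1, reading fluorescence at 594 nm released when a quenched double-stranded DNA oligonucleotide substrate is cleaved and separated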
test_settings: Compound Concentration 10.0 uM, Hit No
Description: Inhibition of SMUG1 by quantifying inhibition of SMUG1-mediated cleavage and dissociation of quenched duplex DNA oligonucleotides, measured as fluorescence at 594 nm. To generate a functional strand incision and increase turn-over this assay is coupled to APE1.
Where a SMILES comes first, the peptide text is derived from it.

molecule: C=C1/C(=C\C=C2/CCC[C@]3(C)[C@@H]([C@H](C)CCCC(C)(C)O)CC[C@@H]23)C[C@@H](O)C[C@@H]1O
value_units: %
inhibition: 0.349
--
molecule: CCN(Cc1ccc(Cl)cc1)c1ncc(C(=O)NCCCN2CCCC2=O)c(NC2CCCC2)n1
value_units: %
inhibition: 17.5
--
molecule: CCCCC[C@H](O)/C=C/[C@H]1CCC(=O)[C@@H]1CCCCCCC(=O)O
value_units: %
inhibition: -3.08
--
molecule: CN1CCC(=C2c3ccccc3CC(=O)c3sccc32)CC1
value_units: %
inhibition: -4.83
--
molecule: CC(C)c1c(CN(C)C(C)Cc2ccccc2)n(C)n(-c2ccccc2)c1=O (stereo unspecified)
value_units: %
inhibition: 23.9
--
molecule: CCn1cc(-c2ccnc3[nH]c(-c4cccc(CN(C)C)c4)cc23)c(-c2ccc(NC(=O)N(C)C)cc2)n1
value_units: %
inhibition: 24.3
--
molecule: CN(C)CCOc1ccc(-c2nc(-c3ccncc3)c(-c3ccc4c(c3)CC/C4=N\O)[nH]2)cc1
value_units: %
inhibition: -6.49
--
molecule: O=C(NCCCn1ccnc1)c1cc2nc(-c3ccccc3)cc(-c3ccccc3)n2n1
value_units: %
inhibition: 12
--
molecule: CC[C@@H]1CN(C(=O)NCC(F)(F)F)C[C@@H]1c1cnc2cnc3[nH]ccc3n12
value_units: %
inhibition: 20.8
--
molecule: CCCCN(CC)c1nc(C)nc2c1c(C)cn2-c1c(C)cc(C)cc1C
value_units: %
inhibition: -0.0333
--
molecule: O=C1c2cccc3c2[C@H](CCC3)CN1[C@@H]1CN2CCC1CC2
value_units: %
inhibition: -4.7
--
molecule: CC(=O)Nc1nc(CN2CCC[C@H](Cc3cc(C)nc(C)c3)C2)cs1
value_units: %
inhibition: 19
--
molecule: C=CC(=O)Nc1ccc2[nH]c(=O)n(C3CCN(Cc4ccc(-c5ccc6c(c5)NC(=O)CO6)cc4)CC3)c2c1
value_units: %
inhibition: 16.7
--
molecule: CCc1cc2c(cc1CC)CC(NC[C@H](O)c1ccc(O)c3[nH]c(=O)ccc13)C2
value_units: %
inhibition: -5.22
--
molecule: COc1cc(Nc2nccc(-c3cnn4nc(OC)ccc34)n2)cc(C(F)(F)F)c1
value_units: %
inhibition: 1.75
--
molecule: Cc1cc(OC2CCS(=O)(=O)CC2)cc(C)c1-c1cccc(COc2ccc(C(=O)O)c(F)c2)c1
value_units: %
inhibition: 23.6
--
molecule: CC(C)C[C@@H]1NC(=O)[C@@H](C(C)C)NC(=O)[C@@H]2CCCN2C(=O)[C@@H](CC(=O)O)NC(=O)[C@@H](Cc2c[nH]c3ccccc23)NC1=O (HELM PEPTIDE1{L.[dW].[dD].P.[dV]}$PEPTIDE1,PEPTIDE1,1:R1-5:R2$$$V2.0)
value_units: %
inhibition: -0.372
--
molecule: COc1nc2ccc([C@@](O)(c3ccc(Cl)cc3)c3cncn3C)cc2c(Cl)c1Cc1ccc(-n2cccn2)cc1
value_units: %
inhibition: 16.6
--
molecule: CCNC(=O)N1CCCN(c2ccc(C(=O)NCCc3ccc(Cl)cc3Cl)cc2NC(=O)c2cccc(Cl)c2)CC1
value_units: %
inhibition: 5.69
--
molecule: Cc1ccnc(Nc2nc(-c3ccccn3)cs2)c1
value_units: %
inhibition: 5.18
--
molecule: CC(C)NCC(O)c1ccc(N)c(C#N)c1 (stereo unspecified)
value_units: %
inhibition: -9.04
--
molecule: CSc1ccccc1N1CCN(CCCCCC(=O)NC2CCCc3ccccc32)CC1 (stereo unspecified)
value_units: %
inhibition: -2.78
--
molecule: CN1CCC(C(=O)c2cccc(NC(=O)c3c(F)cc(F)cc3F)n2)CC1
value_units: %
inhibition: -9.63
--
molecule: NS(=O)(=O)c1cncc(-c2nc(NCc3ccccn3)c3c(-c4ccccc4)cccc3n2)c1
value_units: %
inhibition: 7.73
--
molecule: Cc1c(P(=S)(c2ccccc2)c2ccccc2)n2ccccc2[n+]1C/C=C/c1ccccc1
value_units: %
inhibition: -6.48
--
molecule: COc1ccc(CC[C@@H](OC(=O)[C@@H]2CCCCN2C(=O)[C@H](c2cc(OC)c(OC)c(OC)c2)C2CCCCC2)c2cccc(OCCN3CCOCC3)c2)cc1OC
value_units: %
inhibition: 4.21

Values compiled from ChEMBL document CHEMBL5665443.
